test system: HT29 cells; test: Combined use of compound 257, AMG650 or Compound A with PLK1 inhibitor on HT29 cell viability, 168 h (Biological Example 19); format: cell-based; details: Homo sapiens, HT-29, 168 h, HT29 cells, TAK-960 40 nM, read-out: IC50
This listing pairs molecules with measured IC50.
Give the number; nM is assumed, so skip it.

Worked cases, IC50 given:
- smilesRepresentation: "COc1ccc(NC(=O)c2ccc(NS(=O)(=O)CCO)cc2N2CCC3(CC2)CC3)nc1N1CCC(F)(F)CC1"
  assayedSystem: "HT29 cells"
  resultUnits: "nM"
  IC50: 1.7
- smilesRepresentation: "CCS(=O)(=O)Nc1ccc2c(c1)C1(CCC3(CC3)CC1)CN2C(=O)c1cccc(S(=O)(=O)NC(C)(C)C)c1"
  assayedSystem: "HT29 cells"
  resultUnits: "nM"
  IC50: 4.1

q: Which IC50 value belongs to `Cc1cc(NC(=O)c2ccc(NS(=O)(=O)CCO)cc2N2CCC3(CC2)CC3)nc(N2CCC(F)(F)CC2)n1` ?
a: 16.1
